Catalogue of compounds with associated z-score
# Assay summary: JC-1 mitochondrial signal, unstimulated myeloma cells – cell-based, JC-1 fluorescence, RPMI8226, 24 h, 100 nL compound, profiling panel (AID 1169); further: test concentration not given here
# Condition context: JC-1 mitochondrial potential fluorescence, higher = more signal
Give the figure by itself; no unit, no explanation.

As a guide, the following entries are already answered.
C=CCNC(=O)[C@H]1[C@@H]2C(=O)O[C@@H](c3ccccc3)[C@@H](c3ccccc3)N2[C@@H](c2ccc(OCCO)cc2)[C@]12C(=O)Nc1ccc(C#CC3(O)CCCCCC3)cc12    -0.819
CC(C)C(CO)N1C(=O)[C@@H]2C3C(=O)OCCC/C=C\[C@H]3OC23C=CCN(Cc2ccccc2)C(=O)[C@@H]13 (some centres undefined)    -0.687

Requested field: z-score. Item: CN(C)C(=O)[C@]1(Cc2ccccc2)N=C(c2ccc(OCCCO)cc2)O[C@@H]1c1ccccc1CN=[N+]=[N-]
-1.23

Requested field: z-score. Item: CN(C)CCCC[C@@H]1NC(=O)[C@H]2C[C@@H](C(=O)O)[C@@H](c3ccc(O)cc3)N2C1=O
-0.693

----------
# Target: Left-right determination factor 2 (Homo sapiens)
# Assay summary: small molecules binding LEFTY2 protein – biochemical, small-molecule microarray, 635 nm fluorescence scan, primary screen (AID 1110)
# Condition context: higher = more signal
Catalogue of compounds with associated composite z-score
Give the figure by itself; no unit, no explanation.

As a guide, the following entries are already answered.
CCCC[C@H]1OB(O)C[C@H]2C1=C(COc1ccccc1)C[C@H]1C(=O)C=CC(=O)[C@H]12    0.406
COC(=O)C[C@H]1O[C@@]2(C[C@@H]1[Si](C)(C)C)C(=O)N(C)c1ccccc12    0.392

Moving on to the next compound.
Requested field: composite z-score. Item: C=CCOC(=O)[C@@H]1[C@H]2C(=O)O[C@H](c3ccccc3)[C@H](c3ccccc3)N2[C@H](c2ccc(OCCOC(=O)[C@H]3C[C@H]4C(=O)N[C@@H](CCCCN(C)C)C(=O)N4[C@H]3c3ccc(O)cc3)cc2)[C@@]12C(=O)Nc1ccc(I)cc12
1.17

----------
# Assay summary: small molecules captured by biotinylated probe aFST – biochemical, small-molecule microarray, fluorescence 635/667, stem cell growth factor project, primary screen (AID 1086);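 further: score merges 667 nm fluorescence with signal-to-noise of each printed compound spot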
# Condition context: higher = more signal
Parameter: composite z-score

COC(=O)c1cccc([C@H]2OC(=CC(=O)OC(C)C)C[C@@H](c3cccc(C(=O)OC)c3)O2)c1    0.902

Requested field: composite z-score. Item: COCCOC(=O)N1C(=O)[C@@]2(c3cc(C#CCCO)ccc31)[C@H](c1ccc(OCCO)cc1)N1[C@H](c3ccccc3)[C@H](c3ccccc3)OC(=O)[C@H]1[C@@H]2C(=O)N1CCCCCCC1
2.65

Requested field: composite z-score. Item: N#Cc1ccc(C(O)C2C=CC3C(=O)NC(=O)C3N2Nc2ccc(Cl)cc2Cl)cc1 (configuration not stated)
0.119

Requested field: composite z-score. Item: CN(C)C(=O)[C@@]1(Cc2ccccc2CN=[N+]=[N-])COC(c2ccc(OCCCO)cc2)=N1
0.681

----------
# Target: Neurogenic locus notch homolog protein 2 (Homo sapiens)
# Assay summary: small molecules binding Notch2 protein – biochemical, small-molecule microarray, 635 nm fluorescence, stem cell growth factors, primary screen (AID 1073)
# Condition context: higher = more signal
Mark true (1) for reported composite z-score of 0.1 or greater; mark false (0) for anything smaller.

Previously resolved entries follow.
CC1CC/C=C\[C@H]2OC34C=CCN(c5ccc6ccccc6c5)C(=O)[C@H]3N(C(C)CO)C(=O)[C@@H]4C2C(=O)O1 (some centres undefined)    false (0)
Cc1ccc(S[C@]2(C(=O)NCCCN(C)C)CC(=O)N(C3Cc4ccccc4C3)[C@@H]2c2ccc(CO)cc2I)cc1    false (0)
C=CC[C@@]12N=C(c3ccc(OCCCO)cc3)O[C@@H]1c1ccccc1N(CCC)C2=O    true (1)

Check if composite z-score >= 0.1 (inclusive). Item: COc1ccc(C(O)C2C=CC3C(=O)N(c4ccccc4)C(=O)C3N2Nc2ccc([N+](=O)[O-])cc2)c2ccccc12 (centres undefined)
true (1)

Check if composite z-score >= 0.1 (inclusive). Item: C[N+](C)(C)CCCC[C@@H]1NC(=O)[C@H]2C[C@@H](C(=O)NCCCCCNC(=O)CS)[C@@H](c3cccc(OCCO)c3)N2C1=O
false (0)

----------
# Test system: Chordin-like protein 2 (CHRDL2)
# Assay summary: compounds binding chordin-like 2 – biochemical, small-molecule microarray, 635 nm fluorescence, primary screen (AID 1126);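 further: printed compound slides probed with Chrdl2 protein at 4 µg/mL for 1 h at 4 C; score merges 667 nm emission intensity with signal to noise over three replicate slides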
# Condition context: fluorescence 635 nm, higher = more signal
Parameter: composite z-score
Give the figure by itself; no unit, no explanation.

Requested field: composite z-score. Item: COCCOC(=O)N1C(=O)[C@@]2(c3cc(C#CCC(C(=O)OC)C(=O)OC)ccc31)[C@H](C(=O)Nc1nc3ccccc3s1)[C@H]1C(=O)O[C@H](c3ccccc3)[C@H](c3ccccc3)N1[C@@H]2c1ccc(OCCO)cc1
1.32

Requested field: composite z-score. Item: C=CCC(OC(C)=O)[C@@H]1[C@@H](N(Cc2ccc(-c3cccc(C(F)(F)F)c3)o2)C(=O)Cc2ccc(F)cc2)c2cc(OCCCO)ccc2N1C(=O)Cc1ccc2ccccc2c1 (stereo partly drawn)
0.0229

Requested field: composite z-score. Item: CCOC(=O)c1cn(C[C@H](Cc2ccccc2)NC(=O)N[C@H](CO)CCc2oc(C(C)=O)c(C(=O)OC)c2C(=O)OC)nn1
1.17

----------
# Assay summary: plasmodial surface anion channel blockers, osmotic lysis – cell-based, P. falciparum Indochina, OD700, 2 h, primary screen (AID 1155);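 further: lysis reports solute entry through the parasite surface anion channel PSAC; channel blockers reduce lysis of infected cells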
# Condition context: P. falciparum Indochina infected erythrocytes, higher = more signal, called active from +8 up or from −8 down
Mark Condition met for reported z-score of 2 or greater; mark Condition not met for anything smaller.

O=C(N1CCOCC1)[C@@]1(Cc2ccccc2)COC(c2ccc(OCCCO)cc2)=N1    Condition not met
C=C(CCCC)/C(=C/C[C@H](OC(=O)c1ccncc1)c1cccc(OCCO)c1)c1cnc2ccccc2c1    Condition met

Check if z-score >= 2 (inclusive). Item: C=C(CCCC)/C(=C/C[C@H](OC(C)=O)c1cccc(OCCO)c1)c1cnc2ccccc2c1
Condition met

Check if z-score >= 2 (inclusive). Item: [N-]=[N+]=Nc1ccccc1C[C@]1(C(=O)N2CCOCC2)N=C(c2ccc(OCCCO)cc2)O[C@H]1c1ccccc1N=[N+]=[N-]
Condition met

Check if z-score >= 2 (inclusive). Item: CC(C)=C1C(=O)C(c2ccccc2)=C2CN3C(=O)N(CCc4ccccc4)C(=O)[C@]3(C)[C@H]21
Condition met

Check if z-score >= 2 (inclusive). Item: [N-]=[N+]=Nc1ccccc1C[C@@]1(C(=O)NCc2ccccc2)N=C(c2ccc(OCCCO)cc2)O[C@@H]1c1ccccc1N=[N+]=[N-]
Condition met

Check if z-score >= 2 (inclusive). Item: CCCCCC1=C2CNC(Cc3ccccc3)(C(=O)OC)C=C2C(C)C1=O (stereo not given)
Condition not met

Check if z-score >= 2 (inclusive). Item: COc1cc(C(O)C2C=CC3C(=O)N(c4ccccc4)C(=O)C3N2Nc2ccccc2F)cc(OC)c1OC (stereo not given)
Condition not met

----------
# Assay summary: probe aLefty1 binding on compound microarray – biochemical, small-molecule microarray, 635/667 nm fluorescence, primary screen (AID 1153);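 further: score merges spot fluorescence with signal-to-noise ratio from the scanned slide images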
# Condition context: higher = more signal
Parameter: composite z-score
Give the figure by itself; no unit, no explanation.

As a guide, the following entries are already answered.
C=C(CCCC)C(=O)CC[C@H](OC(=O)c1ccccc1-c1ccccc1C(=O)O)c1ccc(OCCO)cc1    -0.199
CCOC(=O)C1=CC[C@@H](c2ccccc2)N(S(=O)(=O)c2ccc(C)cc2)[C@H]1c1ccccc1I    1.24
CC(C)(C)OC(=O)CC[C@]1(C(=O)NCC(O)CO)N=C(c2ccc(OCCCO)cc2)O[C@H]1c1ccccc1N=[N+]=[N-] (stereo partly specified)    0.215

Requested field: composite z-score. Item: C=CCOC(=O)[C@H]1[C@@H]2C(=O)O[C@@H](c3ccccc3)[C@@H](c3ccccc3)N2[C@@H](c2ccc(OCCOC(=O)[C@H]3C[C@H]4C(=O)N[C@@H](CC(C)C)C(=O)N4[C@H]3c3ccc(O)cc3)cc2)[C@]12C(=O)Nc1ccccc12
0.13

Requested field: composite z-score. Item: CCOC(=O)C1=CCC(c2cc3ccccc3[nH]2)N(CCN2CC(C(=O)OCC)=CCC2c2cc3ccccc3[nH]2)C1 (stereo unspecified)
0.379

Requested field: composite z-score. Item: C[C@@H]1NC(=O)C([C@@H](C)OCc2ccccc2)NC(=O)[C@@]23C(=O)N[C@@H](Cc4ccccc4)C2[C@H](C)[C@@]2(C)O[C@H]2C3/C=C/C/C=C\CNC1=O (stereo partly specified)
-0.147
